# target or system: CIB1 and αIIb interaction (CIB1-GST : F-αIIb peptide) (Homo sapiens)
# Construct: made in house; host or cells: BL-21 plus RIL cells (E. coli)
# assay remarks: FP assay, 1536-well qHTS format (primary and confirmatory screen)
# Format: binding
# details: Table S3, confirmatory screen; negative = inhibition
# Lookup of reported Efficacy (%) (confirmatory screen) keyed by entry
measurement label: Efficacy (%) (confirmatory screen)

{"structure smiles string": "O=C(Nc1nc(-c2ccccc2)cs1)c1ccccc1NS(=O)(=O)c1ccc(F)cc1.O=C(O)C(F)(F)F", "target or system": "CIB1 and αIIb interaction (CIB1-GST : F-αIIb peptide) (Homo sapiens)", "assay result": 48}
{"structure smiles string": "NS(=O)(=O)c1ccc(Cc2c(-c3ccc(F)c(-c4ccc(F)cc4)c3)nn(-c3nc(C(=O)O)cs3)c2C2CC2)cc1F.O=C(O)C(F)(F)F", "target or system": "CIB1 and αIIb interaction (CIB1-GST : F-αIIb peptide) (Homo sapiens)", "assay result": 124}
{"structure smiles string": "COc1cccc(C(=O)c2no[n+]([O-])c2C(=O)c2cccc(OC)c2)c1", "target or system": "CIB1 and αIIb interaction (CIB1-GST : F-αIIb peptide) (Homo sapiens)", "assay result": -52}

---

# target or system: GST-CIB1 : F-scrambled peptide (Homo sapiens)
# Construct: made in house; host or cells: BL-21 plus RIL cells (E. coli)
# Sequence (Q99828 1-191): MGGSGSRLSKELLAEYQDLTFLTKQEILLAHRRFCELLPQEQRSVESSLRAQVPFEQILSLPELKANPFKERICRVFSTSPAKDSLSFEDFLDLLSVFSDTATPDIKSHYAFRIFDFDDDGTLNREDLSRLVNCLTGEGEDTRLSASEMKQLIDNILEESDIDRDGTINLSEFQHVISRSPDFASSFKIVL
# assay remarks: FP scrambled-peptide counter screen, 1536-well format
# Format: binding
# details: counterscreen

{"structure smiles string": "COc1cccc2nc(-c3cccs3)nc(NN3C(=O)C=C(C)C3=O)c12", "units symbol": "%", "Efficacy (%) (counterscreen)": -30}
{"structure smiles string": "O=C(Nc1nc(-c2ccccc2)cs1)c1ccncc1NS(=O)(=O)c1cccs1.O=C(O)C(F)(F)F", "units symbol": "%", "Efficacy (%) (counterscreen)": -52}
{"structure smiles string": "Oc1ccc(-c2nnn[nH]2)c2cccnc12", "units symbol": "%", "Efficacy (%) (counterscreen)": -19}
{"structure smiles string": "CNc1ccc(C(=O)Oc2cc(ON=[N+]([O-])N(C)C)c([N+](=O)[O-])cc2[N+](=O)[O-])cc1", "units symbol": "%", "Efficacy (%) (counterscreen)": -40}
{"structure smiles string": "O=c1nc(-c2ccccn2)sc2ccccc12", "units symbol": "%", "Efficacy (%) (counterscreen)": 0}
{"structure smiles string": "O=C(NC1=CC(=O)c2ccccc2C1=O)c1ccccc1.O=C(O)C(F)(F)F", "units symbol": "%", "Efficacy (%) (counterscreen)": -113}
{"structure smiles string": "CN(C)CCCn1cc(C2=C(c3c[nH]c4ccccc34)C(=O)NC2=O)c2ccccc21", "units symbol": "%", "Efficacy (%) (counterscreen)": -54}
{"structure smiles string": "CC1(C)OB(c2ccc(O)c3ncc(N4CCNCC4)cc23)OC1(C)C.O=C(O)C(F)(F)F", "units symbol": "%", "Efficacy (%) (counterscreen)": -102}
